Cited source: patent US12281162

targetOrTestSystem: T1, human G-protein-coupled receptor family C group 5 member D (GPRC5D) (human, UniProt Q9NZD1 1-345)
T1 construct: whole, on cells; also called human GPRC5D protein
T1 sequence (Q9NZD1 whole entry): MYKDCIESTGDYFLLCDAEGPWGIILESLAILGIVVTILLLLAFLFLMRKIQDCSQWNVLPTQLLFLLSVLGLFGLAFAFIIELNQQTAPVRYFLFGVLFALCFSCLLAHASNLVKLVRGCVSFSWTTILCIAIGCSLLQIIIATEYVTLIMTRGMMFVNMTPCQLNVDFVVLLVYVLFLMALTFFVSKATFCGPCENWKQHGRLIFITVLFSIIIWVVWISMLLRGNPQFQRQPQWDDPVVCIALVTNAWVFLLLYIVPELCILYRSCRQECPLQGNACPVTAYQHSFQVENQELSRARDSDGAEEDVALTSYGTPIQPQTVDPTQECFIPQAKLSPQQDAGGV
protocol: FACS, CHO-K1/human GPRC5D, hybridoma supernatant
quantityName: LogEC50
Kindly provide the number alone.

Data request: Fill blank: measured LogEC50 of the binder 2D3C12 (antibody, V domains shown, murine antibody from hybridoma supernatant) VH: QVQLQQSGAELVRPGTSVKVSCKASGYAFINYLIEWIKQRPGQGLEWIGMINPGSGGTNYNEKFKDKATLTADKSSSTAYMQLSSLTSDDSAVYFCARNWDVWGQGTTLTVSS VL: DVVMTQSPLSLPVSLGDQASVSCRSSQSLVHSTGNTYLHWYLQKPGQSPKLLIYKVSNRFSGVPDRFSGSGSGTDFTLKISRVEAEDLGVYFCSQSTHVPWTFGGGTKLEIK is ____.
Data returned: 0.454

Data request: Fill blank: measured LogEC50 of the binder 37B9C4 (antibody, V domains shown, murine antibody from hybridoma supernatant) VH: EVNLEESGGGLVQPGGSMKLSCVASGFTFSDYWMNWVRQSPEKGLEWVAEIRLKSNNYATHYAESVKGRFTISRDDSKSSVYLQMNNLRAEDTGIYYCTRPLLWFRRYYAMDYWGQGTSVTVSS VL: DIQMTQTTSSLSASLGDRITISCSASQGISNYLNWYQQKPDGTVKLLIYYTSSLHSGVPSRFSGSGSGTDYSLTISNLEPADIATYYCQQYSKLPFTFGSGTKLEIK is ____.
Data returned: 0.592
